assay: Steady-state retinoid levels and visual chromophore regeneration after 28 days of HPR; format: in vivo, mouse; conditions: abca4 -/- (knockout line; background strain not stated), mouse, RPE tissue, intraperitoneal, HPR 10 mg/kg, read-out: HPR present within RPE tissue
measured endpoint: concentration at 28 days

- CC1=C(/C=C/C(C)=C/C=C/C(C)=C/C(=O)Nc2ccc(O)cc2)C(C)(C)CCC1 [HPR, N-(4-hydroxyphenyl)retinamide]: ~10 µM

----------
test: Ocular retinoid content after 7 days of HPR (HPLC); assay type: in vivo, mouse; conditions: mouse, RPE (retinal pigment epithelium), intraperitoneal, HPR 5-20 mg/kg/day i.p. in DMSO, dose-dependent, read-out: accumulation of HPR within the RPE
measured endpoint: concentration at 7 days

- CC1=C(/C=C/C(C)=C/C=C/C(C)=C/C(=O)Nc2ccc(O)cc2)C(C)(C)CCC1 [HPR, N-(4-hydroxyphenyl)retinamide]: 4 to 6 µM

Hello, the source for this data is patent US20070015827A1, in case you need it.
